Origin of values: patent US11358973B2

Assay Overview: Pharmacokinetic experiment in rats
Format: in vivo, Sprague-Dawley rats
Condition: male, Sprague-Dawley, plasma; rat, IV 3 mg/kg
Readout Kind: AUC(0-t) (ng·h/mL)

{"columns": ["Compound", "AUC(0-t) (ng·h/mL)"],
 "data": [
  ["C[C@H]1CC(=O)Nc2cnn3ccc(nc23)N[C@H](C)c2cc(F)ccc2O1", 6560],
  ["C[C@H]1CNC(=O)c2cnn3ccc(nc23)N[C@H](C)c2cc(F)ccc2O1 [TPX-0005, reference compound]", 3560],
  ["O=C1CCOc2ccc(F)cc2[C@H]2CCCN2c2ccn3ncc(c3n2)N1", 5010],
  ["C[C@H]1Nc2ccn3ncc(c3n2)NC(=O)CCOc2ccc(F)cc21", 6240]
]}

(A) C[C@@H]1CCc2ncc(F)cc2[C@H]2CCCN2c2ccn3ncc(c3n2)C(=O)N1 [LOXO-195, reference compound]
(B) C[C@H]1CC(=O)Nc2cnn3ccc(nc23)N2CCC[C@@H]2c2cc(F)ccc2O1
## Task Compare reported AUC(0-t) values for A and B . Which is lower? Provide the label of your selected option as the answer.
## Result B
(B: 2480 ng·h/mL, A: 4670 ng·h/mL)

* * *

Assay Overview: Pharmacokinetic experiment in rats
Type: in vivo, Sprague-Dawley rats
Condition: male, Sprague-Dawley, plasma; rat, IV 3 mg/kg; read-out: AUCINF_pred
Readout Kind: AUC(0-inf) (µg·h/mL)

Use these answered entries as a reference point.
{"columns": ["Molecule", "Unit Spec", "Meas Value"],
 "data": [
  ["O=C1CCOc2ccc(F)cc2[C@H]2CCCN2c2ccn3ncc(c3n2)N1 [Compound L-1-A]", "µg·h/mL", 5.03],
  ["C[C@H]1Nc2ccn3ncc(c3n2)NC(=O)CCOc2ccc(F)cc21 [Compound T-1]", "µg·h/mL", 6.35]
]}

(1) C[C@H]1CC(=O)Nc2cnn3ccc(nc23)N[C@H](C)c2cc(F)ccc2O1 [Compound T-2-A]
(2) C[C@H]1CNC(=O)c2cnn3ccc(nc23)N[C@H](C)c2cc(F)ccc2O1 [TPX-0005, reference compound]
(3) C[C@H]1CC(=O)Nc2cnn3ccc(nc23)N2CCC[C@@H]2c2cc(F)ccc2O1 [Compound L-2-A]
## Task Rank items: key AUC(0-inf), increasing. Give the labels in the order requested.
## Result 3, 2, 1
(3: 2.48 µg·h/mL, 2: 3.58 µg·h/mL, 1: 6.62 µg·h/mL)

* * *

Assay Overview: Pharmacokinetic experiment in rats
Format: in vivo, Sprague-Dawley rats
Condition: rat, IV 3 mg/kg
Readout Kind: Vz_pred (L/kg)

{"columns": ["Compound", "Meas Value"],
 "data": [
  ["C[C@H]1CNC(=O)c2cnn3ccc(nc23)N[C@H](C)c2cc(F)ccc2O1 [TPX-0005, reference compound]", 4.46],
  ["C[C@H]1CC(=O)Nc2cnn3ccc(nc23)N2CCC[C@@H]2c2cc(F)ccc2O1", 1.85],
  ["C[C@H]1CC(=O)Nc2cnn3ccc(nc23)N[C@H](C)c2cc(F)ccc2O1", 2.67]
]}

(A) C[C@H]1Nc2ccn3ncc(c3n2)NC(=O)CCOc2ccc(F)cc21
(B) C[C@@H]1CCc2ncc(F)cc2[C@H]2CCCN2c2ccn3ncc(c3n2)C(=O)N1 [LOXO-195, reference compound]
(C) O=C1CCOc2ccc(F)cc2[C@H]2CCCN2c2ccn3ncc(c3n2)N1
## Task Sort low-to-high on Vz_pred, please. Please respond with the labels ordered as the question requires.
## Result B, C, A

* * *

Assay Overview: Pharmacokinetic experiment in rats
Format: in vivo, Sprague-Dawley rats
Condition: male, Sprague-Dawley, plasma; rat, PO 10 mg/kg; read-out: AUCINF_pred
Readout Kind: AUC(0-inf) (µg·h/mL)

The examples below pair each entry with its known result.
{"columns": ["Compound", "Unit Spec", "Meas Value"],
 "data": [
  ["C[C@H]1CC(=O)Nc2cnn3ccc(nc23)N2CCC[C@@H]2c2cc(F)ccc2O1", "µg·h/mL", 4.53],
  ["C[C@H]1CNC(=O)c2cnn3ccc(nc23)N[C@H](C)c2cc(F)ccc2O1 [TPX-0005, reference compound]", "µg·h/mL", 5.59],
  ["O=C1CCOc2ccc(F)cc2[C@H]2CCCN2c2ccn3ncc(c3n2)N1", "µg·h/mL", 11.3],
  ["C[C@H]1CC(=O)Nc2cnn3ccc(nc23)N[C@H](C)c2cc(F)ccc2O1", "µg·h/mL", 12.9]
]}

(1) C[C@@H]1CCc2ncc(F)cc2[C@H]2CCCN2c2ccn3ncc(c3n2)C(=O)N1 [LOXO-195, reference compound]
(2) C[C@H]1Nc2ccn3ncc(c3n2)NC(=O)CCOc2ccc(F)cc21
## Task Two entries are listed, 1 and 2 . Which one carries the higher AUC(0-inf)? Identify your selection by its label.
## Result 2

* * *

Assay Overview: Pharmacokinetic experiment in rats
Type: in vivo, Sprague-Dawley rats
Condition: male, Sprague-Dawley, plasma; rat, IV 3 mg/kg
Readout Kind: half-life (h)

{"columns": ["Compound", "half-life (h)"],
 "data": [
  ["C[C@@H]1CCc2ncc(F)cc2[C@H]2CCCN2c2ccn3ncc(c3n2)C(=O)N1 [LOXO-195, reference compound]", 1.45],
  ["C[C@H]1CNC(=O)c2cnn3ccc(nc23)N[C@H](C)c2cc(F)ccc2O1 [TPX-0005, reference compound]", 5.77]
]}

(1) C[C@H]1CC(=O)Nc2cnn3ccc(nc23)N2CCC[C@@H]2c2cc(F)ccc2O1
(2) C[C@H]1Nc2ccn3ncc(c3n2)NC(=O)CCOc2ccc(F)cc21
## Task Task for the reader: decide whether 1 or 2 has the larger half-life. // respond with label for picked entry
## Result 2

(P) O=C1CCOc2ccc(F)cc2[C@H]2CCCN2c2ccn3ncc(c3n2)N1
(Q) C[C@H]1CC(=O)Nc2cnn3ccc(nc23)N[C@H](C)c2cc(F)ccc2O1
## Task Lower half-life: P or Q ? When you have decided, please share the label of that item.
## Result P

* * *

Assay Overview: Pharmacokinetic experiment in rats
Format: in vivo, Sprague-Dawley rats
Condition: male, Sprague-Dawley, plasma; rat, IV 3 mg/kg; read-out: MRTINF_pred
Readout Kind: MRT inf (h)

(P) O=C1CCOc2ccc(F)cc2[C@H]2CCCN2c2ccn3ncc(c3n2)N1
(Q) C[C@H]1Nc2ccn3ncc(c3n2)NC(=O)CCOc2ccc(F)cc21
## Task Hi, I'm comparing two records. Which one has the lower MRT inf, P or Q ? Kindly state the label of the option you pick.
## Result P

(a) C[C@H]1CNC(=O)c2cnn3ccc(nc23)N[C@H](C)c2cc(F)ccc2O1 [TPX-0005, reference compound]
(b) C[C@H]1CC(=O)Nc2cnn3ccc(nc23)N2CCC[C@@H]2c2cc(F)ccc2O1
## Task Among a and b , whose measured MRT inf is the smaller figure? Please respond with the label that marks your chosen entry.
## Result b
(b: 1.2 h, a: 1.76 h)

(P) C[C@H]1CC(=O)Nc2cnn3ccc(nc23)N[C@H](C)c2cc(F)ccc2O1
(Q) C[C@@H]1CCc2ncc(F)cc2[C@H]2CCCN2c2ccn3ncc(c3n2)C(=O)N1 [LOXO-195, reference compound]
## Task Compare reported MRT inf values for P and Q . Which is lower? # respond with the chosen item's label
## Result Q
(Q: 0.54 h, P: 3.44 h)

* * *

Assay Overview: Pharmacokinetic experiment in rats
Type: in vivo, Sprague-Dawley rats
Condition: male, Sprague-Dawley, plasma; rat, PO 10 mg/kg
Readout Kind: Cmax (ng/mL)

The following compounds have reported results that may help.
{"columns": ["Compound", "Meas Value"],
 "data": [
  ["C[C@H]1CC(=O)Nc2cnn3ccc(nc23)N[C@H](C)c2cc(F)ccc2O1", 994],
  ["O=C1CCOc2ccc(F)cc2[C@H]2CCCN2c2ccn3ncc(c3n2)N1", 1490]
]}

(A) C[C@H]1CC(=O)Nc2cnn3ccc(nc23)N2CCC[C@@H]2c2cc(F)ccc2O1
(B) C[C@H]1CNC(=O)c2cnn3ccc(nc23)N[C@H](C)c2cc(F)ccc2O1 [TPX-0005, reference compound]
## Task Which gives the smaller Cmax number: A or B ? Identify your pick by its label.
## Result B
(B: 732 ng/mL, A: 1410 ng/mL)

* * *

Assay Overview: Pharmacokinetic experiment in rats
Format: in vivo, Sprague-Dawley rats
Condition: male, Sprague-Dawley, plasma; rat, PO 10 mg/kg vs IV 3 mg/kg
Readout Kind: bioavailability (%)

{"columns": ["Compound", "Unit Spec", "bioavailability"],
 "data": [
  ["C[C@H]1CC(=O)Nc2cnn3ccc(nc23)N2CCC[C@@H]2c2cc(F)ccc2O1 [Compound L-2-A]", "%", 54.2]
]}

(1) O=C1CCOc2ccc(F)cc2[C@H]2CCCN2c2ccn3ncc(c3n2)N1 [Compound L-1-A]
(2) C[C@@H]1CCc2ncc(F)cc2[C@H]2CCCN2c2ccn3ncc(c3n2)C(=O)N1 [LOXO-195, reference compound]
(3) C[C@H]1CNC(=O)c2cnn3ccc(nc23)N[C@H](C)c2cc(F)ccc2O1 [TPX-0005, reference compound]
## Task With regard to bioavailability, arrange the entries in ascending order, please. Present the labels in the sequence the task asks for.
## Result 2, 3, 1
